# ASSAY_COMMENT: Selectivity ratio of Ki for sigma 1 receptor in Dunkin guinea pig brain membrane to Ki for sigma 2 receptor in Wistar Hannover rat liver membrane
# Type: cell membranes

# COMPOUND, Ratio Ki
records = [
    ("COc1cccc2c1CCCC2CCCN1CC[N+](C)(C2CCCCC2)CC1 (stereo not drawn)", 26),
    ("COc1cccc2c1CCCC2CCC[N+]1(C)CCN(C2CCCCC2)CC1 (stereo not drawn)", 9.4),
    ("COc1cccc2c1CCCC2CCC[N+]1(C)CC[N+](C)(C2CCCCC2)CC1 (stereo not drawn)", "> 3"),
    ("COc1cccc2c1CCCC2CCCCCN1CCC(C2CCCCC2)CC1 (stereo not drawn)", 3.3),
    ("COc1cccc2c1CCCC2CCCN1CCC(C2CCCCC2)CC1 (stereo not drawn)", 7.6),
    ("COc1cccc2c1CCCC2CCCN1CCN(C(=O)C2CCCCC2)CC1 (stereo not drawn)", "> 16"),
    ("COc1cccc2c1CCCC2CCCN1CCN(CCCC2CCCc3c(OC)cccc32)CC1 (stereo not drawn)", "> 42"),
    ("COc1cccc2c1CCCC2CCCNCC(=O)NC1CCCCC1 (stereo not drawn)", 5),
]
